assaySummary: Half life in wild-type Wistar rat at 20 mg/kg, po by LC-MS/MS analysis
Format: ADME, organism-based
Set-up: dose 20 mg/kg, route oral
assayConditions: in vivo
parameter: half-life (h)
# unit: h | format: bare number

[in] Record request: half-life value, item Nc1ccc(S(=O)(=O)Nc2ccccn2)cc1
[out] 2.3

----------
assaySummary: in vivo
assayConditions: Sprague-Dawley, rat, po, 10 mg/kg
parameter: AUC(0-t) at 4 h
Note: state the figure and append the unit.

[in] Look up AUC(0-t) at 4 h for this molecule: CN(C)C(=O)C(CCN1CCC(O)(c2ccc(Cl)cc2)CC1)(c1ccccc1)c1ccccc1 [LOPERAMIDE]
[out] 0.651 µg·h/mL

----------
assaySummary: in vivo
assayConditions: Sprague-Dawley, rat, plasma, po, 10 mg/kg
parameter: AUC(0-inf)
Put down the number, then write its unit next to it.

[in] Which AUC(0-inf) reading was recorded for the compound CN(C)C(=O)C(CCN1CCC(O)(c2ccc(Cl)cc2)CC1)(c1ccccc1)c1ccccc1 [LOPERAMIDE] ?
[out] 0.806 µg·h/mL

----------
assaySummary: Cmax in BCRP knockout Sprague-Dawley rat at 5 mg/kg, po by LC-MS/MS analysis
Type: ADME, organism-based
Design: dose 5 mg/kg, route oral
assayConditions: in vivo
parameter: Cmax (ng/mL)
Express your answer in ng/mL, writing the number without its unit.

[in] Dear colleague, I am looking for the recorded Cmax of the following compound: CC(=O)O[C@H]1C(=O)[C@@]2(C)[C@H]([C@H](OC(=O)c3ccccc3)[C@]3(O)C[C@H](OC(=O)[C@H](O)[C@@H](NC(=O)c4ccccc4)c4ccccc4)C(C)=C1C3(C)C)[C@]1(OC(C)=O)CO[C@@H]1C[C@@H]2O [PACLITAXEL]
[out] 40

----------
assaySummary: Half life in MRP2-deficient Wistar rat at 5 mg/kg, iv by LC-MS/MS analysis
Assay type: ADME, organism-based
Parameters: dose 5 mg/kg, route intravenous
assayConditions: in vivo
parameter: half-life (h)
Answer format: numeric, h implied, no suffix.

[in] Need half-life, item O=C(O)c1cc(/N=N/c2ccc(S(=O)(=O)Nc3ccccn3)cc2)ccc1O [SULFASALAZINE]
[out] 4

----------
assaySummary: Drug excretion in bile duct-cannulated MRP2 knockout Sprague-Dawley rat urine at 1 mg/kg, iv up to 24 hrs
Type: ADME, organism-based
Set-up: dose 1 mg/kg, route intravenous
assayConditions: read-out: Drug excretion
parameter: dose excreted at 24 h (%)
All answers are understood in %, so give the number only.

[in] Suppose we examine the molecule CC(=O)O[C@H]1C(=O)[C@@]2(C)[C@H]([C@H](OC(=O)c3ccccc3)[C@]3(O)C[C@H](OC(=O)[C@H](O)[C@@H](NC(=O)c4ccccc4)c4ccccc4)C(C)=C1C3(C)C)[C@]1(OC(C)=O)CO[C@@H]1C[C@@H]2O ; what dose excreted at 24 h value has been reported?
[out] 4.5

----------
assaySummary: AUC (infinity) in MRP2 knockout Sprague-Dawley rat at 5 mg/kg, iv by LC-MS/MS analysis
Type: ADME, organism-based
Design: time infinity, dose 5 mg/kg, route intravenous
assayConditions: plasma
parameter: AUC(0-inf) (ng·h/mL)
Give just the numeric value; ng·h/mL need not be written.

[in] Dear colleague, I am looking for the recorded AUC(0-inf) of the following compound: O=C(O)c1cc(/N=N/c2ccc(S(=O)(=O)Nc3ccccn3)cc2)ccc1O
[out] 4320

----------
assaySummary: Clearance in wild-type Sprague-Dawley rat at 5 mg/kg, iv by LC-MS/MS analysis
Assay type: ADME, organism-based
Design: dose 5 mg/kg, route intravenous
assayConditions: in vivo
parameter: clearance

[in] Which clearance is listed for O=C(O)c1cc(/N=N/c2ccc(S(=O)(=O)Nc3ccccn3)cc2)ccc1O [SULFASALAZINE] ?
[out] 10.4 mL/min/kg

----------
assaySummary: Tmax in MRP2-deficient Wistar rat at 5 mg/kg, po by LC-MS/MS analysis
Format: ADME, organism-based
Set-up: dose 5 mg/kg, route oral
assayConditions: in vivo
parameter: Tmax (min)
Number only, in min; omit the unit.

[in] // Tmax lookup, key: O=C(O)c1cc(/N=N/c2ccc(S(=O)(=O)Nc3ccccn3)cc2)ccc1O
[out] 15

----------
assaySummary: Drug excretion in bile duct-cannulated BCRP knockout Sprague-Dawley rat bile at 1 mg/kg, iv up to 24 hrs
Assay type: ADME, organism-based
Set-up: dose 1 mg/kg, route intravenous
assayConditions: read-out: Drug excretion
parameter: dose excreted at 24 h (%)
Write the value in % as a bare number.

[in] State the recorded dose excreted at 24 h for this entry: CC(=O)O[C@H]1C(=O)[C@@]2(C)[C@H]([C@H](OC(=O)c3ccccc3)[C@]3(O)C[C@H](OC(=O)[C@H](O)[C@@H](NC(=O)c4ccccc4)c4ccccc4)C(C)=C1C3(C)C)[C@]1(OC(C)=O)CO[C@@H]1C[C@@H]2O [PACLITAXEL]
[out] 0.1

----------
assaySummary: AUC (infinity) in wild-type Wistar rat at 5 mg/kg, po by LC-MS/MS analysis
Type: ADME, organism-based
Set-up: time infinity, dose 5 mg/kg, route oral
assayConditions: plasma
parameter: AUC(0-inf) (ng·h/mL)
Value expressed in ng·h/mL; do not type the unit.

[in] So what does the record say about AUC(0-inf) for O=C(O)c1cc(/N=N/c2ccc(S(=O)(=O)Nc3ccccn3)cc2)ccc1O ?
[out] 1810

----------
assaySummary: in vivo
assayConditions: Sprague-Dawley, rat, po, 10 mg/kg
parameter: AUC(0-t) at 4 h

[in] Recorded AUC(0-t) at 4 h of CN(C)C(=O)C(CCN1CCC(O)(c2ccc(Cl)cc2)CC1)(c1ccccc1)c1ccccc1 [LOPERAMIDE] , please.
[out] 184 ng·h/mL

----------
assaySummary: Cmax in MRP2 knockout Sprague-Dawley rat at 10 mg/kg, po by LC-MS/MS analysis
Assay type: ADME, organism-based
Design: dose 10 mg/kg, route oral
assayConditions: in vivo
parameter: Cmax (ng/mL)
Entry rule: numbers only, all in ng/mL.

[in] Name the reported Cmax value associated with the molecule CN(C)C(=O)C(CCN1CCC(O)(c2ccc(Cl)cc2)CC1)(c1ccccc1)c1ccccc1 [LOPERAMIDE]
[out] 60

----------
assaySummary: Oral bioavailability in MDR1A knockout Sprague-Dawley rat at 5 mg/kg by LC-MS/MS analysis
Type: ADME, organism-based
assayConditions: in vivo
parameter: bioavailability (%)
Your answer is read as %, so omit the unit and give the number.

[in] If you can, please state the reported bioavailability value of CC(=O)O[C@H]1C(=O)[C@@]2(C)[C@H]([C@H](OC(=O)c3ccccc3)[C@]3(O)C[C@H](OC(=O)[C@H](O)[C@@H](NC(=O)c4ccccc4)c4ccccc4)C(C)=C1C3(C)C)[C@]1(OC(C)=O)CO[C@@H]1C[C@@H]2O .
[out] 47

----------
assaySummary: AUC (infinity) in wild-type Sprague-Dawley rat at 1 mg/kg, iv by LC-MS/MS analysis
Format: ADME, organism-based
Design: time infinity, dose 1 mg/kg, route intravenous
assayConditions: plasma
parameter: AUC(0-inf)
Note: a bare number is incomplete; add the unit.

INSERT INTO measurements (compound, parameter, result) VALUES
  ('CC(=O)O[C@H]1C(=O)[C@@]2(C)[C@H]([C@H](OC(=O)c3ccccc3)[C@]3(O)C[C@H](OC(=O)[C@H](O)[C@@H](NC(=O)c4ccccc4)c4ccccc4)C(C)=C1C3(C)C)[C@]1(OC(C)=O)CO[C@@H]1C[C@@H]2O', 'AUC(0-inf)', '172 ng·h/mL');

[in] Please give the measured AUC(0-inf) for this compound: CN(C)C(=O)C(CCN1CCC(O)(c2ccc(Cl)cc2)CC1)(c1ccccc1)c1ccccc1 [LOPERAMIDE]
[out] 131 ng·h/mL

----------
assaySummary: AUC (infinity) in MRP2-deficient Wistar rat at 5 mg/kg, iv by LC-MS/MS analysis
Format: ADME, organism-based
Parameters: dose 5 mg/kg, route intravenous, time infinity
assayConditions: plasma
parameter: AUC(0-inf) (ng·h/mL)
A number alone suffices; assume ng·h/mL.

[in] // lookup AUC(0-inf) for O=C(O)c1cc(/N=N/c2ccc(S(=O)(=O)Nc3ccccn3)cc2)ccc1O
[out] 7730

----------
assaySummary: Tmax in BCRP knockout Sprague-Dawley rat at 10 mg/kg, po by LC-MS/MS analysis
Type: ADME, organism-based
Parameters: dose 10 mg/kg, route oral
assayConditions: in vivo
parameter: Tmax (min)
Could you give me the number in min? Just the number is fine.

[in] Could you share which Tmax value was measured for CN(C)C(=O)C(CCN1CCC(O)(c2ccc(Cl)cc2)CC1)(c1ccccc1)c1ccccc1 [LOPERAMIDE] ?
[out] 42

----------
assaySummary: Volume of distribution at steady state in wild-type Sprague-Dawley rat at 1 mg/kg, iv by LC-MS/MS analysis
Assay type: ADME, organism-based
Parameters: dose 1 mg/kg, route intravenous
assayConditions: in vivo, read-out: Vdss
parameter: Vd (L/kg)
Field: numeric (L/kg). Do not append units.

INSERT INTO measurements (compound, number) VALUES
  ('CC(=O)O[C@H]1C(=O)[C@@]2(C)[C@H]([C@H](OC(=O)c3ccccc3)[C@]3(O)C[C@H](OC(=O)[C@H](O)[C@@H](NC(=O)c4ccccc4)c4ccccc4)C(C)=C1C3(C)C)[C@]1(OC(C)=O)CO[C@@H]1C[C@@H]2O', 30.3);

[in] Data request, read-out Vd, for CN(C)C(=O)C(CCN1CCC(O)(c2ccc(Cl)cc2)CC1)(c1ccccc1)c1ccccc1 [LOPERAMIDE]
[out] 9
